Data origin: a melting point compilation (Tetko et al.; mined from patent text by program, amines drawn as free bases though some values may be those of a salt)

molecule	melting point
O=C(O)c1ccc(-c2ccc3nnn(Cc4ccc5ncccc5c4)c3n2)cc1F	254 to 257 °C
CC(NCC#N)C(O)(Cn1cncn1)c1ccc(F)cc1F (stereo not given)	138 to 139 °C
COc1cc(-n2nc3ccc(Cl)cn3c2=O)c(F)cc1Cl	140 to 142 °C
CCCCCCCCCCCC(=O)c1c[nH]c(C(=O)OC)c1	102 to 103 °C
N#Cc1cc([N+](=O)[O-])ccc1Oc1cc(Cl)c(Cl)c(Cl)c1	162 to 164 °C
COc1ccc(-c2ccc(C(N)=O)cc2)cc1OCCCCc1ccccc1	180 to 182 °C
Cc1ccc(S(=O)(=O)N2CC2CBr)cc1 (stereo not given)	75 to 78 °C
Brc1ccc2nc(-c3ccc4ccccc4c3)cn2c1	226 to 228 °C
CCOCCn1c(C)c(C2(c3ccc(N(C)C)cc3C)OC(=O)c3ccccc32)c2ccccc21 (stereo not given)	170 to 171 °C
CCOc1ccc(S(=O)(=O)n2nc(O)cc2N)cc1-c1nc2cccnc2c(=O)[nH]1	246 to 249 °C
